Listed next: entries and their corresponding apparent KD of MS2 coat protein.
Tested on: MS2 coat protein
method.notes: apparent KD of MS2 coat protein; designed switch direction (-1 OFF switch, 1 ON switch): -1; higher = weaker reporter binding
condition.summary: Eterna round: R95; input ligand: FMN 200 uM
readout.name: apparent KD of MS2 coat protein (nM)

ordered.residues	numeric.result
AGAAGACAUGAGGAUCACCCAUGUAAGGAUAUCGAAGGUAAGAGAGGAAAGAAGUUAACGAGAAGGUACAGGUG [JR_Exclu1_Sub097] (puzzle: Exclusion 1)	101
GGUUGACAUGAGGAUCACCCAUGUGAGGAUAUGCGAGAGAAAAAAGUGAGGAAGAAAUGCAGAAGGCGCUGUCG [salish99-ex1_r3_009] (puzzle: Exclusion 1)	127
CUUAGCCUAAAAUCACGCAAGCUUUUUGCUUGUCUAAAGACAUGAGGAUCACCCAUGUCCGGGCUGAACUUAUGGAA [Atqusoen] (puzzle: Sensor v3, turn-off variant 2)	17.7

----------
Test system: MS2 coat protein
method.notes: apparent KD of MS2 coat protein, switch OFF state (with FMN for OFF switches, without FMN for ON switches); designed switch direction (-1 OFF switch, 1 ON switch): -1; higher = weaker reporter binding
condition.summary: FMN input: 0 or 200 uM; Eterna round: R93 (includes R88 designs)
readout.name: apparent KD of MS2 coat protein (nM)

> print(dat)
                            ordered.residues  unit.symbol  numeric.result
 1  AAGAAAGCAGGAUAUACAUGAGGAUCACCCAUGUAAAAGAAAGAGGGAAAAGAGAAAAGUAGAAGGGCUAAGAA [Cleopatra IV]           nM            33.8
 2  AAAAAACAUGAGGAUCACCCAUGUAAGGAUAUGCAAAACCCAUAUAAAAAGGGAAAAAGCAGAAGGUACAAAAA [Starry Exclusion 1.1 (wbt round 1 mod)]           nM            33.1
 3  AAGAAGGUAGGAUAUGCUAAAGAAAUAAAAAUAAAUAAAGAACAUGAGGAUCACCCAUGUAGAAGGGCCAAGAA [Mer[...]re]           nM            27.9
 4  AAGAAAGCAGGAUAUACAUGAGGAUCACCCAUGUAAAAGAAAGAAAAGGGAAAGAAAAGUAGAAGGGCUAAGAA [User/Heqamaatre-setpenamun Ramesses IV]           nM            74.1
 5  AAAUGCUGAGGAUAUACAUGAGGAUCACCCAUGUAAAAUAAAUAAUAGGUGUAAACGUGUAGAAGGCAGCAUAA [Exclusion 3.14a (FMN+ favored )]           nM            27.5
 6  AACAUGUUAGGAUAUUGAAGAAAAGAAAAGAAAGAAAAGAACAAGAAGGAACAUGAGGAUCACCCAUGUAAGAA [EteRNA is fun!]           nM            17.2
 7  AAGAAAGUAGGAUAUACAAGGAAGAAAGAAAAGAAAAGAAAACAUGAGGAUCACCCAUGUAGAAGGACUUAGAA [EteRNA is fun!]           nM            18.7
 8  AUCAUGUCAGGAUAUCAGUAGUAAAAAAAAAAAAUUACUACUGAGAAGGGACAUGAGGAUCACCCAUGUCCAAA [EX4 306: Super Stable 6]           nM            46.2
 9  CUCAAGUAAGGAUAUGCAAGAAAAGAAGAGAAAGAAAAGAAGCAGAAGGUACAUGAGGAUCACCCAUGUAAGAA [EteRNA is fun!]           nM            35.8
10  GUGUACAGAGGAUAUACUAAAGCUAGGAAACUAGCAAGAUCACAUGAGGAUCACCCAUGUAGAAGGCUGUACAC [Ex2: 740]           nM             500
11  GUAGAGUGAGGAUAUGAAUAAAAGAAGAGAAAGAGAAAGCAUCAGAAGGCACAUGAGGAUCACCCAUGUAUGAA [JR_Exc004_Sub1225]           nM            25.3
12  AAAAAACAUGAGGAUCACCCAUGUAAGGAUAUGCUAAAAAACACGGAAAAACGUGAUAGCAGAAGGUACAAAAA [66%, Wbt, 31]           nM            33.4
13  AUAAACUGAGGAUAUACAUGAGGAUCACCCAUGUAAAAAAAGAAAUGAUCCUCAGGAAGUAGAAGGCAGAAUAA [JR_Exc003_Sub017]           nM            28.3
